Overview of recorded IC50 for various compounds
- Test system: NLRP3 inflammasome pathway
- assay.protocol: NLRP3 inflammasome pathway activation assay, MSU stimulation, IL-1β HTRF
- Assay type: cell-based
- condition.set: Homo sapiens, 3 h, Table 8 (formula II′/II vs formula III); MSU 200 μg/mL for 3 h; IL-1β release; read-out: IC50 Human monocyte-like cells MSU
metric.name: IC50

item.smiles	measured.target	result
Cn1c(-c2ccc(C(F)(F)F)cc2O)nc2nc(NCCO)ccc21	NLRP3 inflammasome pathway	100 to 500 nM
Cn1c(NCCO)nc2nc(-c3ccc(C(F)(F)F)cc3O)ccc21	NLRP3 inflammasome pathway	> 1500 nM
CN1CCC[C@@H](Nc2ccc3c(n2)nc(-c2ccc(C(F)(F)F)cc2O)n3C)C1	NLRP3 inflammasome pathway	100 to 500 nM
CN1CCC[C@@H](Nc2nc3nc(-c4ccc(C(F)(F)F)cc4O)ccc3n2C)C1	NLRP3 inflammasome pathway	> 1500 nM

* * *

Overview of recorded IC50 for various molecules
- System: NLRP3 inflammasome pathway
- assay.protocol: NLRP3 inflammasome pathway activation assay, Nigericin stimulation, IL-1β HTRF
- Assay type: cell-based
- condition.set: Homo sapiens, 3 h, Table 7; PMA-differentiated, LPS-primed cells; Nigericin 3.75 μM for 3 h; IL-1β release; read-out: IC50 Human monocyte-like cells Nigericin
- Method: The following assays were used to determine the inhibitory activity of test compounds on the NLRP3 inflammasome pathway using common stimuli Nigericin (Invivogen) or monosodium urate crystals (MSU) (Invivogen). […] For IL-1p quantification, supernatants were analyzed using HTRF kit according to the manufacturer's instructions (Cisbio 62HIL1BPEH). […] Reading was done using an EnVision Reader (PerkinElmer). […]
metric.name: IC50

molecule	metric.name	result
Cc1cc(C(F)(F)F)cc(O)c1-c1nc2nc(N[C@H]3CCCC[C@@H]3O)ccc2n1C (single isomer, unassigned)	IC50	> 1000 nM
CCn1c(-c2ccc(C(F)(F)F)cc2O)nc2nc(NC3CCN(C)C3)ccc21 (single isomer, unassigned)	IC50	100 to 1000 nM
CN1CCC[C@@H](Oc2ccc3c(n2)nc(-c2ccc(C(F)(F)F)cc2O)n3C)C1	IC50	100 to 1000 nM
COc1ccc2c(n1)nc(-c1c(C)cc(C(F)(F)F)cc1O)n2C	IC50	100 to 1000 nM
CCn1c(-c2c(C)cc(C(F)(F)F)cc2O)nc2nc(OCCO)ccc21	IC50	100 to 1000 nM
COc1ccc2c(n1)nc(-c1c(C)cc(Cl)cc1O)n2C	IC50	100 to 1000 nM
COc1ccc2c(n1)nc(-c1ccc(C(F)(F)F)cc1O)n2C	IC50	< 100 nM
Cc1cc(C(F)(F)F)cc(O)c1-c1nc2nc(O[C@@H]3CCCN(C)C3)ccc2n1C	IC50	100 to 1000 nM
